TESTED TARGET: Cerebral Binding Sites of the Benzodiazepines
EXPERIMENTAL PROTOCOL: displacement of tritiated Diazepam (3H Diazepam) from cerebral benzodiazepine binding sites (method of Mohler and Coll.)
SETTINGS: read-out: KD, constant of affinity of 3H Diazepam; constant used in the Ki formula
MEASURED ATTRIBUTE: pKd
In simple prose, pKd is minus the logarithm base ten of a concentration in moles per litre.

Please look up its pKd: CN1C(=O)CN=C(c2ccccc2)c2cc(Cl)ccc21 [^3 H Diazepam] 5.56

###

Measured pKi on Cerebral Binding Sites of the Benzodiazepines follows.
In simple prose, pKi is minus the logarithm base ten of a concentration in moles per litre.

1) c1ccc(-c2cc(CCC3CCCNC3)c3ccccc3n2)cc1 (centres unmarked) ... 7.00
2) COc1ccc2nccc(C(=O)CCC3CCCNC3)c2c1 (centres unmarked) ... 5.70
3) O=C(CCC1CCCNC1)c1cc(-c2ccccc2)nc2ccccc12 (centres unmarked) ... 6.10
4) c1ccc(-c2cc(CCC3CCNC3)c3ccccc3n2)cc1 (centres unmarked) ... 6.15

Please look up its pKi: CN1CCCC(CCCc2cc(-c3ccccc3)nc3ccccc23)C1 (centres unmarked) 5.52

Please look up its pKi: Clc1ccc(-c2cc(CCC3CCCNC3)c3ccccc3n2)cc1 (centres unmarked) 5.80

Please look up its pKi: CN1CCCC(CCc2cc(-c3ccccc3)nc3ccccc23)C1 (centres unmarked) 6.05

Please look up its pKi: c1ccc(-c2cc(CCC3CCCCN3)c3ccccc3n2)cc1 (centres unmarked) 6.22

Please look up its pKi: c1ccc(-c2cc(CCCC3CCCNC3)c3ccccc3n2)cc1 (centres unmarked) 6.00

Please look up its pKi: c1ccc(-c2cc(CCCC3CCCCN3)c3ccccc3n2)cc1 (centres unmarked) 5.57

Please look up its pKi: COc1ccc2nccc(CCCC3CCCNC3)c2c1 (centres unmarked) 5.26
